The reported measurements were obtained from PubChem BioAssay AID434982.

# Assay notes: agonists of NOTCH signaling (AID 434982)
# Condition label: NOTCH signaling luciferase reporter cells, luminescence; at 2.5 µM; hits give high values
Out of some 15,000 compounds screened, about 60 (0.4%) were called active. The list comes from a sample in which actives are over-represented; it also holds close analogues and randomly drawn compounds.
Experimental endpoint: activation (%)
One number for each entry, in %.

Example entries and their recorded answers appear below.
Molecule: O=C(Cn1c(=Nc2ccc(F)cc2)oc2ccccc2c1=O)c1ccccc1
Numeric readout: -0.66

Molecule: COC(=O)c1ccc(S(=O)(=O)NNC(=O)c2cn3cc(C(F)(F)F)cc(Cl)c3n2)n1C
Numeric readout: 3.18

Look up activation for the entries below, preserving their order.
1. COC(=O)c1ccc(S(=O)(=O)N2CCN(c3ccc([N+](=O)[O-])cn3)CC2)n1C
2. NNC(=O)c1csc(-c2ccc(C(F)(F)F)cn2)n1

[reply]
1: 0.16; 2: -0.19

[ask] Any idea what activation was measured for "CC(=O)N1c2ccccc2C=Cc2ccccc21" ?
[reply] -5.39

---

# Assay notes: agonists of NOTCH signaling (AID 434982)
# Condition label: NOTCH signaling luciferase reporter cells, luminescence; at 2.5 µM; hits give high values
Among all 15,000 compounds or so, about 60 (0.4%) were called active. What follows is part of a selection rich in actives, with near analogues and random picks from the rest.
For each record, write down the corresponding activation.
Answers are plain numbers, in %.

Example entries and their recorded answers appear below.
Molecule: Cc1cc(C(=O)NCCNS(=O)(=O)c2ccc(Cl)cc2)c(C)o1
activation, %: -0.14

Molecule: NC(=O)C1CCN(CC(O)CSc2ccc(F)cc2)CC1 (centres undefined)
activation, %: -5.86

Molecule: O=C1c2ccccc2C(=O)N1CNc1ccc(C2CCCCC2)cc1
activation, %: -0.31

Molecule: O=C(O)C1CC2CC1CCC2O (centres undefined)
activation, %: -0.37

Molecule: CCCC1NC(=O)NC(C)=C1C(=O)OCC (centres undefined)
activation, %: -0.61

Look up activation for the entries below, preserving their order.
1. CC(C)(C)c1csc(Sc2ccc([N+](=O)[O-])cc2[N+](=O)[O-])n1
2. N#Cc1ccc(Oc2ccc(Cl)cc2)c([N+](=O)[O-])c1
3. COc1cc(C=C(C#N)C#N)cc(OC(C)=O)c1OC(C)=O
4. O=C(O)c1ccccc1N/C=C/[N+](=O)[O-]
5. CCCN(CCC)S(=O)(=O)c1ccc(C(=O)Oc2c(C)cccc2OC)cc1

[reply]
1. -0.69
2. -0.29
3. -0.27
4. -0.62
5. 0.36

---

# Assay notes: agonists of NOTCH signaling (AID 434982)
# Condition label: NOTCH signaling luciferase reporter cells, luminescence; at 2.5 µM; hits give high values
Screen size: about 15,000 compounds; about 60 (0.4%) were called active. The list comes from a sample in which actives are over-represented; it also holds close analogues and randomly drawn compounds.
Experimental endpoint: activation (%)
Numbers only, in %.

Example entries and their recorded answers appear below.
Compound: Cc1cc(-c2nc(C(=O)NN3CCCCC3)cs2)no1
Numeric readout: -0.7
//
Compound: COc1cccc(/C=C2\SC(=S)C(N)C2=O)c1OC (stereo unspecified)
Numeric readout: 0.34
//
Compound: Cc1nc(-c2ncc(-c3ccccc3)o2)c(C(F)(F)F)o1
Numeric readout: -4.8
//
Compound: CNC(=S)NNC(=O)c1cc(C)on1
Numeric readout: -0.11
//
Compound: CC(=O)NC12CC3(C)CC(C)(CC(C)(C3)C1)C2
Numeric readout: 1.34

[ask] Any idea what activation was measured for "Cc1c(NC(=S)Nc2ccccc2)c(=O)n(-c2ccccc2)n1C" ?
[reply] -0.19
